Cited source: patent US12275684B2

experiment: Placebo controlled, dose escalation pharmacokinetic study of oral (Z)-Endoxifen capsules (serum endoxifen; incl. accumulation ratios and dose linearity); format: in vivo, human; conditions: female, human, serum, oral, 1 mg; Day 1 hr 0.5; read-out: Serum concentration, Mean
measured.parameter: concentration at 0.5 h (nM)
A number alone suffices; assume nM.

What measured concentration at 0.5 h goes with CC/C(=C(\c1ccc(O)cc1)c1ccc(OCCNC)cc1)c1ccccc1 [(Z)-Endoxifen] ?
2.68

###

experiment: Placebo controlled, dose escalation pharmacokinetic study of oral (Z)-Endoxifen capsules (serum endoxifen; incl. accumulation ratios and dose linearity); type: in vivo, human; conditions: female, human, serum, oral, 1 mg; Day 1 hr 0.5; read-out: Serum concentration, GeoMean
measured.parameter: concentration at 0.5 h (nM)
Number only, in nM; omit the unit.

May I ask what concentration at 0.5 h has been recorded for CC/C(=C(\c1ccc(O)cc1)c1ccc(OCCNC)cc1)c1ccccc1 [(Z)-Endoxifen] ?
3.18
